tested on: CAKI-1; assay: GI values against CAKI-1 cells(renal carcinoma); format: functional; settings: Homo sapiens
Catalogue of compounds with associated GI50

{"compound": "COc1cc([C@@H]2c3cc4c(cc3[C@@H](Nc3ccc5c(c3)OCCC5=O)[C@H]3COC(=O)[C@H]23)OCO4)cc(OC)c1O", "bound_type": "=", "GI50, µM": 0.126}
{"compound": "COc1cc([C@@H]2c3cc4c(cc3[C@@H](O[C@@H]3O[C@@H]5CO[C@@H](C)O[C@H]5[C@H](O)[C@H]3O)[C@H]3COC(=O)[C@H]23)OCO4)cc(OC)c1O [ETOPOSIDE]", "bound_type": "=", "GI50, µM": 6.31}
{"compound": "COc1cc([C@@H]2c3cc4c(cc3[C@@H](Nc3ccc(F)cc3)[C@H]3COC(=O)[C@]23F)OCO4)cc(OC)c1O", "bound_type": ">", "GI50, µM": 10}
{"compound": "COc1cc([C@@H]2c3cc4c(cc3[C@H](O)[C@H]3COC(=O)[C@]23F)OCO4)cc(OC)c1OC", "bound_type": ">", "GI50, µM": 10}
{"compound": "COc1cc([C@@H]2c3cc4c(cc3[C@@H](Nc3ccc([N+](=O)[O-])cc3)[C@H]3COC(=O)[C@]23F)OCO4)cc(OC)c1O", "bound_type": ">", "GI50, µM": 10}
{"compound": "COc1cc([C@@H]2c3cc4c(cc3[C@@H](Nc3ccc([N+](=O)[O-])cc3)[C@H]3COC(=O)[C@H]23)OCO4)cc(OC)c1O", "bound_type": "=", "GI50, µM": 0.158}

###

assay: % inhibition against KB cells (nasopharyngeal carcinoma) at 4 ug/mL; assay type: functional; details: Homo sapiens

{"structure_smiles": "COc1cc([C@@H]2c3cc4c(cc3[C@@H](Nc3ccc(N)cc3)[C@H]3COC(=O)[C@]23F)OCO4)cc(OC)c1O", "inhibition at 4 µg/mL / %": 61.5}
{"structure_smiles": "COc1cc([C@@H]2c3cc4c(cc3[C@@H](Nc3ccc([N+](=O)[O-])cc3)[C@H]3COC(=O)[C@]23F)OCO4)cc(OC)c1O", "inhibition at 4 µg/mL / %": 41.6}
{"structure_smiles": "COc1cc([C@@H]2c3cc4c(cc3[C@@H](Nc3ccc(F)cc3)[C@H]3COC(=O)[C@]23F)OCO4)cc(OC)c1O", "inhibition at 4 µg/mL / %": 70.9}
{"structure_smiles": "COc1cc([C@@H]2c3cc4c(cc3[C@H](O)[C@H]3COC(=O)[C@]23F)OCO4)cc(OC)c1OC", "inhibition at 4 µg/mL / %": 87.4}
{"structure_smiles": "COc1cc([C@@H]2c3cc4c(cc3[C@@H](O)[C@H]3COC(=O)[C@]23F)OCO4)cc(OC)c1O", "inhibition at 4 µg/mL / %": 64}
{"structure_smiles": "COc1cc([C@@H]2c3cc4c(cc3[C@@H](Nc3ccc(C#N)cc3)[C@H]3COC(=O)[C@]23F)OCO4)cc(OC)c1O", "inhibition at 4 µg/mL / %": 30.5}

###

Measured ID90 accompanies every entry in the list below.
test system: Human betaherpesvirus 5; test: Inhibitory activity against human cytomegalovirus (HCMV); type: functional

{"structure_smiles": "COc1cc([C@@H]2c3cc4c(cc3[C@H](O)[C@H]3COC(=O)[C@]23F)OCO4)cc(OC)c1OC", "units_text": "µM", "bound_type": ">", "ID90": 5}
{"structure_smiles": "COc1cc([C@@H]2c3cc4c(cc3[C@@H](Nc3ccc([N+](=O)[O-])cc3)[C@H]3COC(=O)[C@]23F)OCO4)cc(OC)c1O", "units_text": "µM", "bound_type": "=", "ID90": 4.6}
{"structure_smiles": "COc1cc([C@@H]2c3cc4c(cc3[C@@H](Nc3ccc(F)cc3)[C@H]3COC(=O)[C@]23F)OCO4)cc(OC)c1O", "units_text": "µM", "bound_type": "=", "ID90": 4.47}
{"structure_smiles": "COc1cc([C@@H]2c3cc4c(cc3[C@@H](Nc3ccc(N)cc3)[C@H]3COC(=O)[C@]23F)OCO4)cc(OC)c1O", "units_text": "µM", "bound_type": "=", "ID90": 5.02}
{"structure_smiles": "COc1cc([C@@H]2c3cc4c(cc3[C@@H](O)[C@H]3COC(=O)[C@]23F)OCO4)cc(OC)c1O", "units_text": "µM", "bound_type": ">", "ID90": 5}
{"structure_smiles": "COc1cc([C@@H]2c3cc4c(cc3[C@@H](Nc3ccc(C#N)cc3)[C@H]3COC(=O)[C@]23F)OCO4)cc(OC)c1O", "units_text": "µM", "bound_type": "=", "ID90": 4.29}

###

# inhibition at 0.04 µg/mL per record follows
test: % inhibition against KB cells (nasopharyngeal carcinoma) at 0.04 ug/mL; assay type: functional; details: Homo sapiens
measure_name: inhibition at 0.04 µg/mL (%)

{"structure_smiles": "COc1cc([C@@H]2c3cc4c(cc3[C@@H](Nc3ccc(N)cc3)[C@H]3COC(=O)[C@]23F)OCO4)cc(OC)c1O", "recorded_result": 0}
{"structure_smiles": "COc1cc([C@@H]2c3cc4c(cc3[C@@H](Nc3ccc(C#N)cc3)[C@H]3COC(=O)[C@]23F)OCO4)cc(OC)c1O", "recorded_result": 5}
{"structure_smiles": "COc1cc([C@@H]2c3cc4c(cc3[C@@H](Nc3ccc(F)cc3)[C@H]3COC(=O)[C@]23F)OCO4)cc(OC)c1O", "recorded_result": 7.5}
{"structure_smiles": "COc1cc([C@@H]2c3cc4c(cc3[C@H](O)[C@H]3COC(=O)[C@]23F)OCO4)cc(OC)c1OC", "recorded_result": 53.3}
{"structure_smiles": "COc1cc([C@@H]2c3cc4c(cc3[C@@H](Nc3ccc([N+](=O)[O-])cc3)[C@H]3COC(=O)[C@]23F)OCO4)cc(OC)c1O", "recorded_result": 0}
{"structure_smiles": "COc1cc([C@@H]2c3cc4c(cc3[C@@H](O)[C@H]3COC(=O)[C@]23F)OCO4)cc(OC)c1O", "recorded_result": 0}

###

test: Selectivity index (ED50/ID50) value of the compound; format: functional
// label = YES if SI is not less than 6, otherwise NO

{"compound": "COc1cc([C@@H]2c3cc4c(cc3[C@@H](Nc3ccc(F)cc3)[C@H]3COC(=O)[C@]23F)OCO4)cc(OC)c1O", "label": "YES"}
{"compound": "COc1cc([C@@H]2c3cc4c(cc3[C@@H](Nc3ccc(C#N)cc3)[C@H]3COC(=O)[C@]23F)OCO4)cc(OC)c1O", "label": "YES"}
{"compound": "COc1cc([C@@H]2c3cc4c(cc3[C@@H](Nc3ccc(N)cc3)[C@H]3COC(=O)[C@]23F)OCO4)cc(OC)c1O", "label": "NO"}
{"compound": "COc1cc([C@@H]2c3cc4c(cc3[C@@H](Nc3ccc([N+](=O)[O-])cc3)[C@H]3COC(=O)[C@]23F)OCO4)cc(OC)c1O", "label": "NO"}
{"compound": "COc1cc([C@@H]2c3cc4c(cc3[C@@H](O)[C@H]3COC(=O)[C@]23F)OCO4)cc(OC)c1O", "label": "NO"}
{"compound": "COc1cc([C@@H]2c3cc4c(cc3[C@@H](O[C@@H]3O[C@@H]5CO[C@@H](C)O[C@H]5[C@H](O)[C@H]3O)[C@H]3COC(=O)[C@H]23)OCO4)cc(OC)c1O [ETOPOSIDE]", "label": "YES"}

###

test system: CAKI-1; experiment: GI values against CAKI-1 cells(renal carcinoma); type: functional; settings: Homo sapiens
measure_name: GI50 (nM)

{"compound": "COc1cc([C@@H]2c3cc4c(cc3[C@@H](Nc3ccc(N)cc3)[C@H]3COC(=O)[C@]23F)OCO4)cc(OC)c1O", "measure_name": "GI50", "bound_type": ">", "recorded_result": 10000}
{"compound": "COc1cc([C@@H]2c3cc4c(cc3[C@@H](Nc3ccc(N)cc3)[C@H]3COC(=O)[C@H]23)OCO4)cc(OC)c1O", "measure_name": "GI50", "bound_type": "=", "recorded_result": 316}
{"compound": "COc1cc([C@@H]2c3cc4c(cc3[C@H](O)[C@H]3COC(=O)[C@H]23)OCO4)cc(OC)c1OC [PODOFILOX]", "measure_name": "GI50", "bound_type": "=", "recorded_result": 100}
{"compound": "COc1cc([C@@H]2c3cc4c(cc3[C@@H](Nc3ccc(F)cc3)[C@H]3COC(=O)[C@H]23)OCO4)cc(OC)c1O", "measure_name": "GI50", "bound_type": "=", "recorded_result": 316}
